Recorded values, source PubChem BioAssay AID1963985.

Each entry below carries its reported viability, T/C.
System: 252836-082-R-J2-PDC tumor spheroids, viability
test.protocol: Anticancer human tumor 252836-082-R-J2-PDC patient-derived head and neck squamous cell carcinoma cell line growth inhibition [PI3K]
test.context: compound 0.1 µM; hits give low values; spheroids with HUVEC and MSC

Worked cases, answers included:
> print(dat)
                                   molecule   quantity.name                    result
1  CC1(C)CCC(Nc2ncc(C(F)(F)F)c(-c3c[nH]c4c(P(C)(C)=O)c(C#N)ccc34)n2)CN1 (stereo not drawn)  viability, T/C  29.5% [middle of 4 runs]
2  CC1(C)CCC(CN2CCN(c3ccc(C(=O)NS(=O)(=O)c4ccc(NCC5CCOCC5)c([N+](=O)[O-])c4)c(Oc4cnc5[nH]ccc5c4)c3)CC2)=C(c2ccc(Cl)cc2)C1  viability, T/C  99.2% [middle of 4 runs]
3  Cn1ncc(Cl)c1-c1cc(C(=O)NC(CN)Cc2cccc(F)c2)sc1Cl (stereo not drawn)  viability, T/C    85% [middle of 4 runs]
4  CC(Nc1ccc2c(c1)OCCn1cc(N3C(=O)OCC3C(F)F)nc1-2)C(N)=O (stereo not drawn)  viability, T/C  65.7% [middle of 8 runs]

Could you tell me which viability, T/C is on file for Cn1nccc1Nc1nccc(-c2ccn(C(CO)c3ccc(Cl)c(F)c3)c(=O)c2)n1 (stereo not drawn) ?
100% [middle of 4 runs]

Okay, and Cc1nc(NC(=O)N2CCCC2C(N)=O)sc1-c1ccnc(C(C)(C)C(F)(F)F)c1 (stereo not drawn) ?
88.9% [middle of 8 runs]

Okay, and Cn1ncnc1[C@H]1c2n[nH]c(=O)c3cc(F)cc(c23)N[C@@H]1c1ccc(F)cc1 ?
55.5% [middle of 4 runs]

Okay, and COc1c(OCCCN2CCOCC2)ccc2c3n(c(=NC(=O)c4cnc(N)nc4)nc12)CCN3 ?
36.6% [middle of 8 runs]

Okay, and CC(C)n1nc(-c2ccc3oc(N)nc3c2)c2c(N)ncnc21 ?
23% [middle of 4 runs]

Okay, and CCN1CCN(Cc2ccc(Nc3ncc(F)c(-c4cc(F)c5nc(C)n(C(C)C)c5c4)n3)nc2)CC1 ?
95.2% [middle of 4 runs]

Okay, and CC(C)NCC(C(=O)N1CCN(c2ncnc3c2C(C)CC3O)CC1)c1ccc(Cl)cc1 (stereo not drawn) ?
96.8% [middle of 4 runs]

Okay, and CC(=O)c1c(C)c2cnc(Nc3ccc(N4CCNCC4)cn3)nc2n(C2CCCC2)c1=O ?
95.2% [middle of 4 runs]

Okay, and CC(Cn1ccc(-c2ccc(C#N)c(Cl)c2)n1)NC(=O)c1cc(C(C)O)[nH]n1 (stereo not drawn) ?
88.4% [middle of 4 runs]

---

Tested on: 252836-082-R-J2-PDC tumor spheroids, viability
test.protocol: Anticancer human tumor 252836-082-R-J2-PDC cell line growth inhibition [PI3K];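 also: spheroids exposed to agents for seven days before readout; percent of vehicle DMSO control viability so 100% = untreated growth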
test.context: second compound 0.316 µM; first compound 0.001 µM; hits give low values; spheroids with HUVEC and MSC
quantity.name: viability, T/C (%)
Answer with a number only, understood to be in %.

Worked cases, answers included:
> print(dat)
                                   compound   quantity.name  result
1  Cn1ncnc1[C@H]1c2n[nH]c(=O)c3cc(F)cc(c23)N[C@@H]1c1ccc(F)cc1 + CC(Nc1ccc2c(c1)OCCn1cc(N3C(=O)OCC3C(F)F)nc1-2)C(N)=O  viability, T/C    58.1
2  Cn1ncnc1[C@H]1c2n[nH]c(=O)c3cc(F)cc(c23)N[C@@H]1c1ccc(F)cc1 + Cc1nc(NC(=O)N2CCCC2C(N)=O)sc1-c1ccnc(C(C)(C)C(F)(F)F)c1  viability, T/C    70.8
3  Cn1ncnc1[C@H]1c2n[nH]c(=O)c3cc(F)cc(c23)N[C@@H]1c1ccc(F)cc1 + CC(Nc1ncnc2nc[nH]c12)c1cc2cccc(Cl)c2c(=O)n1-c1ccccc1  viability, T/C      84
4  Cn1ncnc1[C@H]1c2n[nH]c(=O)c3cc(F)cc(c23)N[C@@H]1c1ccc(F)cc1 + COc1c(OCCCN2CCOCC2)ccc2c3n(c(=NC(=O)c4cnc(N)nc4)nc12)CCN3  viability, T/C      16
5  CC(=O)c1c(C)c2cnc(Nc3ccc(N4CCNCC4)cn3)nc2n(C2CCCC2)c1=O + COc1c(OCCCN2CCOCC2)ccc2c3n(c(=NC(=O)c4cnc(N)nc4)nc12)CCN3  viability, T/C    21.1

Could you tell me which viability, T/C is on file for CC(=O)c1c(C)c2cnc(Nc3ccc(N4CCNCC4)cn3)nc2n(C2CCCC2)c1=O + Cc1nc(NC(=O)N2CCCC2C(N)=O)sc1-c1ccnc(C(C)(C)C(F)(F)F)c1 ?
74.2

Okay, and CC(C)n1nc(-c2ccc3oc(N)nc3c2)c2c(N)ncnc21 + COc1c(OCCCN2CCOCC2)ccc2c3n(c(=NC(=O)c4cnc(N)nc4)nc12)CCN3 ?
18.9

Okay, and CC(C)n1nc(-c2ccc3oc(N)nc3c2)c2c(N)ncnc21 + CC(Nc1ncnc2nc[nH]c12)c1cc2cccc(Cl)c2c(=O)n1-c1ccccc1 ?
79

Okay, and CC(=O)c1c(C)c2cnc(Nc3ccc(N4CCNCC4)cn3)nc2n(C2CCCC2)c1=O + CC(Nc1ccc2c(c1)OCCn1cc(N3C(=O)OCC3C(F)F)nc1-2)C(N)=O ?
53.6

Okay, and CC(=O)c1c(C)c2cnc(Nc3ccc(N4CCNCC4)cn3)nc2n(C2CCCC2)c1=O + CC(Nc1ncnc2nc[nH]c12)c1cc2cccc(Cl)c2c(=O)n1-c1ccccc1 ?
91.4

Okay, and CC(C)n1nc(-c2ccc3oc(N)nc3c2)c2c(N)ncnc21 + Cc1nc(NC(=O)N2CCCC2C(N)=O)sc1-c1ccnc(C(C)(C)C(F)(F)F)c1 ?
73.1

Okay, and CC(C)n1nc(-c2ccc3oc(N)nc3c2)c2c(N)ncnc21 + CC(Nc1ccc2c(c1)OCCn1cc(N3C(=O)OCC3C(F)F)nc1-2)C(N)=O ?
52.3

---

System: 252836-082-R-J2-PDC tumor spheroids, viability
test.protocol: Anticancer human tumor 252836-082-R-J2-PDC cell line growth inhibition [PI3K];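 also: spheroids exposed to agents for seven days before readout; percent of vehicle DMSO control viability so 100% = untreated growth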
test.context: second compound 0.0316 µM; first compound 0.00316 µM; hits give low values; spheroids with HUVEC and MSC
Each entry below carries its reported viability, T/C.
Answer with a number only, understood to be in %.

> print(dat)
                                   molecule  u  result
1  CC(C)n1nc(-c2ccc3oc(N)nc3c2)c2c(N)ncnc21 + CC(Nc1ncnc2nc[nH]c12)c1cc2cccc(Cl)c2c(=O)n1-c1ccccc1  %    89.5
2  Cn1ncnc1[C@H]1c2n[nH]c(=O)c3cc(F)cc(c23)N[C@@H]1c1ccc(F)cc1 + CC(Nc1ccc2c(c1)OCCn1cc(N3C(=O)OCC3C(F)F)nc1-2)C(N)=O  %    71.2
3  CC(C)n1nc(-c2ccc3oc(N)nc3c2)c2c(N)ncnc21 + Cc1nc(NC(=O)N2CCCC2C(N)=O)sc1-c1ccnc(C(C)(C)C(F)(F)F)c1  %      98
4  Cn1ncnc1[C@H]1c2n[nH]c(=O)c3cc(F)cc(c23)N[C@@H]1c1ccc(F)cc1 + COc1c(OCCCN2CCOCC2)ccc2c3n(c(=NC(=O)c4cnc(N)nc4)nc12)CCN3  %      52
5  CCN1CCN(Cc2ccc(Nc3ncc(F)c(-c4cc(F)c5nc(C)n(C(C)C)c5c4)n3)nc2)CC1 + CC(Nc1ncnc2nc[nH]c12)c1cc2cccc(Cl)c2c(=O)n1-c1ccccc1  %    98.7

Could you tell me which viability, T/C is on file for CC(=O)c1c(C)c2cnc(Nc3ccc(N4CCNCC4)cn3)nc2n(C2CCCC2)c1=O + CC(Nc1ccc2c(c1)OCCn1cc(N3C(=O)OCC3C(F)F)nc1-2)C(N)=O ?
74.1

Okay, and CC(=O)c1c(C)c2cnc(Nc3ccc(N4CCNCC4)cn3)nc2n(C2CCCC2)c1=O + Cc1nc(NC(=O)N2CCCC2C(N)=O)sc1-c1ccnc(C(C)(C)C(F)(F)F)c1 ?
91.6

Okay, and CCN1CCN(Cc2ccc(Nc3ncc(F)c(-c4cc(F)c5nc(C)n(C(C)C)c5c4)n3)nc2)CC1 + CC(Nc1ccc2c(c1)OCCn1cc(N3C(=O)OCC3C(F)F)nc1-2)C(N)=O ?
79.1

Okay, and Cn1ncnc1[C@H]1c2n[nH]c(=O)c3cc(F)cc(c23)N[C@@H]1c1ccc(F)cc1 + CC(Nc1ncnc2nc[nH]c12)c1cc2cccc(Cl)c2c(=O)n1-c1ccccc1 ?
94

Okay, and CC(=O)c1c(C)c2cnc(Nc3ccc(N4CCNCC4)cn3)nc2n(C2CCCC2)c1=O + CC(Nc1ncnc2nc[nH]c12)c1cc2cccc(Cl)c2c(=O)n1-c1ccccc1 ?
93

Okay, and CC(=O)c1c(C)c2cnc(Nc3ccc(N4CCNCC4)cn3)nc2n(C2CCCC2)c1=O + COc1c(OCCCN2CCOCC2)ccc2c3n(c(=NC(=O)c4cnc(N)nc4)nc12)CCN3 ?
66.9
